Listed here are molecules together with their documented pKi.
testedSystem: full length human recombinant glucocorticoid receptor (Homo sapiens)
Construct: partially purified full length human recombinant glucocorticoid receptor; purchased Panvera/Invitrogen PV4302
Sequence (P04150 1-777): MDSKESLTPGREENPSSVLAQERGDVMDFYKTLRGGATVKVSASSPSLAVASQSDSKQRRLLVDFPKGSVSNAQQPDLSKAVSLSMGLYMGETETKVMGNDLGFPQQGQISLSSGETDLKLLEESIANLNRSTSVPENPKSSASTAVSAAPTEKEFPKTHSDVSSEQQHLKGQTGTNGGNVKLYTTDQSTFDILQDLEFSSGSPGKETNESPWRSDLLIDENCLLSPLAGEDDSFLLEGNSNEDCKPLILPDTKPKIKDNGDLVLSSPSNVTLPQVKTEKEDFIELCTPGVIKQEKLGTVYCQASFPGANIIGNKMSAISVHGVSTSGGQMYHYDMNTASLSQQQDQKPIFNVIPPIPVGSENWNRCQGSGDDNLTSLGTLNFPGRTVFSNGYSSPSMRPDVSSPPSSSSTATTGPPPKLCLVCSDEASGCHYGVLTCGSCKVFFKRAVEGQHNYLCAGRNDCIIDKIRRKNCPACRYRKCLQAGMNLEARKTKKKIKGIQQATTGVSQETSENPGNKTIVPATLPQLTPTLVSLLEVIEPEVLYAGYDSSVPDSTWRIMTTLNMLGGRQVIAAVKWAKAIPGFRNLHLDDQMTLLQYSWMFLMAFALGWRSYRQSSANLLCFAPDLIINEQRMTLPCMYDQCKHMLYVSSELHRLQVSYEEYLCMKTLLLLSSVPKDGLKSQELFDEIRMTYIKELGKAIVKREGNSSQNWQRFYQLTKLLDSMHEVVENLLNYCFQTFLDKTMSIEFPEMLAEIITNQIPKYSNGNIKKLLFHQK
experimentSummary: Glucocorticoid Receptor Binding Assay (fluorescence polarization competitor assay, Fluormone GS Far Red tracer)
// pKi: -log10(molar conc.)

Examples from the recorded data:
{"columns": ["molecule", "valueMeasured"],
 "data": [
  ["CC(c1ccc(Oc2ncc(C(=O)O)cn2)cc1Cl)C(O)(c1ccnc(Cl)c1)C(F)(F)F (stereo not shown)", 6.95],
  ["C[C@@H](c1ccc(OCc2ccc(C3(C(=O)O)CC3)cc2)cc1Cl)[C@](O)(c1cnc2ccccc2c1)C(F)(F)F (stereo in doubt)", 8.34],
  ["COC(=O)c1ccc(-c2ccc([C@H](C)[C@](O)(c3ccc(=O)n(C)c3)C(F)(F)F)c(Cl)c2)cc1F", 8.21],
  ["COC(=O)c1ccc(Oc2ccc([C@@H](C)[C@@](O)(c3ccc(=O)n(C)c3)C(F)(F)F)c(Cl)c2)cc1 (relative stereo)", 8.62],
  ["C[C@@H](c1cc(F)c(Oc2ccc(C(=O)O)c(F)c2)cc1Cl)[C@](O)(c1ccc(=O)n(C)c1)C(F)(F)F (stereo in doubt)", 7.32],
  ["COC(=O)C(C)c1ccc(COc2ccc([C@@H](C)[C@@](O)(c3cnc(C)cn3)C(F)(F)F)c(Cl)c2)cc1 (stereo in doubt)", 7.47]
]}

q: Give recorded pKi with full length human recombinant glucocorticoid receptor (Homo sapiens) for the following molecule: C[C@H](c1ccc(Oc2ccc(C(=O)O)cn2)cc1Cl)[C@@](O)(c1ccc(C#N)n1C)C(F)(F)F (stereo in doubt)
a: 7.65

q: Give recorded pKi with full length human recombinant glucocorticoid receptor (Homo sapiens) for the following molecule: C[C@H](c1ccc(-c2ccc(CCC(=O)O)cc2)cc1Cl)[C@@](O)(c1ccnc(Cl)c1)C(F)(F)F (stereo in doubt)
a: 7.53

q: Give recorded pKi with full length human recombinant glucocorticoid receptor (Homo sapiens) for the following molecule: Cc1cc([C@@](O)([C@@H](C)c2ccc(Oc3ccc(C(=O)O)c(Cl)c3)cc2Cl)C(F)(F)F)cn(C)c1=O (relative stereo)
a: 9.40

q: Give recorded pKi with full length human recombinant glucocorticoid receptor (Homo sapiens) for the following molecule: Cc1cc([C@@](O)([C@@H](C)c2ccc(Oc3ccc(C(=O)O)cc3C(F)(F)F)cc2Cl)C(F)(F)F)cn(C)c1=O (single isomer, unassigned)
a: 8.77

q: Give recorded pKi with full length human recombinant glucocorticoid receptor (Homo sapiens) for the following molecule: COC(=O)c1ccc(-c2ccc([C@H](C)[C@](O)(c3ccc(=O)n(C)c3)C(F)(F)F)c(Cl)c2)cc1Cl
a: 8.59

q: Give recorded pKi with full length human recombinant glucocorticoid receptor (Homo sapiens) for the following molecule: Cc1cc(C(O)(C(C)c2ccc(-c3ccc(C(=O)O)nc3)cc2Cl)C(F)(F)F)ccn1 (stereo not shown)
a: 6.67

q: Give recorded pKi with full length human recombinant glucocorticoid receptor (Homo sapiens) for the following molecule: C[C@H](c1ccc(OCc2ccc(CC(=O)O)cc2)cc1Cl)[C@@](O)(c1ccnc(Cl)c1)C(F)(F)F (stereo in doubt)
a: 8.33

q: Give recorded pKi with full length human recombinant glucocorticoid receptor (Homo sapiens) for the following molecule: COC(=O)c1ccc(CNC(=O)c2ccc([C@@H](C)[C@@](O)(c3ccnc(Cl)c3)C(F)(F)F)c(Cl)c2)cc1 (relative stereo)
a: 6.93

q: Give recorded pKi with full length human recombinant glucocorticoid receptor (Homo sapiens) for the following molecule: COc1cc(Oc2ccc(Cl)c(C(C)C(O)(c3ccnc(Cl)c3)C(F)(F)F)c2)ccc1C(=O)O (stereo not shown)
a: 6.36

q: Give recorded pKi with full length human recombinant glucocorticoid receptor (Homo sapiens) for the following molecule: COC(=O)c1ccc(Oc2ccc(Cl)c([C@H](C)[C@](O)(c3ccc(=O)n(C)c3)C(F)(F)F)c2)cc1Cl (relative stereo)
a: 8.26

q: Give recorded pKi with full length human recombinant glucocorticoid receptor (Homo sapiens) for the following molecule: C[C@H](c1ccc(OS(=O)(=O)c2ccc(C(=O)O)cc2)cc1Cl)[C@@](O)(c1ccnc(Cl)c1)C(F)(F)F (stereo in doubt)
a: 7.94

q: Give recorded pKi with full length human recombinant glucocorticoid receptor (Homo sapiens) for the following molecule: C[C@@H](c1cc(Oc2ccc(F)c(C(=O)O)c2)ccc1Cl)[C@](O)(c1ccc(=O)n(C)c1)C(F)(F)F (stereo in doubt)
a: 7.49

q: Give recorded pKi with full length human recombinant glucocorticoid receptor (Homo sapiens) for the following molecule: CC(c1ccc(Oc2ccc(C(=O)O)cc2Cl)cc1Cl)C(O)(c1ccnc(Cl)c1)C(F)(F)F (stereo not shown)
a: 8.47

q: Give recorded pKi with full length human recombinant glucocorticoid receptor (Homo sapiens) for the following molecule: C[C@H](c1ccc(-c2ccc(F)c(C(=O)O)c2)cc1Cl)[C@@](O)(c1ccc(=O)n(C)c1)C(F)(F)F (relative stereo)
a: 7.55

q: Give recorded pKi with full length human recombinant glucocorticoid receptor (Homo sapiens) for the following molecule: COC(=O)c1ccc(COc2ccc([C@@H](C)[C@@](O)(c3cnc(C)cn3)C(F)(F)F)c(Cl)c2)c(Cl)c1 (stereo in doubt)
a: 7.93

q: Give recorded pKi with full length human recombinant glucocorticoid receptor (Homo sapiens) for the following molecule: C[C@H](c1ccc(Oc2ccc(OCC(=O)O)cc2)cc1Cl)[C@@](O)(c1ccc(=O)n(C)c1)C(F)(F)F
a: 8.80

q: Give recorded pKi with full length human recombinant glucocorticoid receptor (Homo sapiens) for the following molecule: C[C@H](c1ccc(Oc2ccc(F)c(OCC(=O)O)c2)cc1Cl)[C@@](O)(c1ccc(=O)n(C)c1)C(F)(F)F (stereo in doubt)
a: 9.22

q: Give recorded pKi with full length human recombinant glucocorticoid receptor (Homo sapiens) for the following molecule: C[C@@H](c1ccc(OCc2ccc(CC(=O)O)cc2)cc1Cl)[C@](O)(c1cccc2cnccc12)C(F)(F)F (stereo in doubt)
a: 8.74

q: Give recorded pKi with full length human recombinant glucocorticoid receptor (Homo sapiens) for the following molecule: Cc1cc([C@](O)([C@H](C)c2ccc(Oc3ccc(C(=O)O)cc3Cl)cc2Cl)C(F)(F)F)cn(C)c1=O
a: 9.40

====

testedSystem: full length human recombinant glucocorticoid receptor (Homo sapiens)
Construct: partially purified full length human recombinant glucocorticoid receptor; purchased Panvera/Invitrogen PV4302
experimentSummary: Glucocorticoid Receptor Binding Assay (fluorescence polarization competitor assay, Fluormone GS Far Red tracer)
endpoint: pKi
// pKi: -log10(molar conc.)

Examples from the recorded data:
{"columns": ["molecule", "testedSystem", "valueMeasured"],
 "data": [
  ["C[C@H](c1ccc(Oc2cc(C(F)(F)F)c(C(=O)O)cn2)cc1Cl)[C@@](O)(c1ccc(=O)n(C)c1)C(F)(F)F (stereo in doubt)", "full length human recombinant glucocorticoid receptor (Homo sapiens)", 7.40],
  ["C[C@@H](c1cc(Oc2ccc(Cl)c(C(=O)O)c2)ccc1Cl)[C@](O)(c1ccc(=O)n(C)c1)C(F)(F)F (stereo in doubt)", "full length human recombinant glucocorticoid receptor (Homo sapiens)", 7.34],
  ["C[C@H](c1ccc(C(=O)Nc2ccc(C(=O)O)cc2)cc1Cl)[C@@](O)(c1ccnc(Cl)c1)C(F)(F)F (stereo in doubt)", "full length human recombinant glucocorticoid receptor (Homo sapiens)", 6.70],
  ["Cc1cc([C@@](O)([C@@H](C)c2ccc(Oc3ncc(C(=O)O)cc3Cl)cc2Cl)C(F)(F)F)cn(C)c1=O (stereo in doubt)", "full length human recombinant glucocorticoid receptor (Homo sapiens)", 9.30],
  ["COC(=O)c1cnc(Oc2ccc([C@H](C)[C@](O)(c3cc(C)c(=O)n(C)c3)C(F)(F)F)c(Cl)c2)nc1 (relative stereo)", "full length human recombinant glucocorticoid receptor (Homo sapiens)", 8.82]
]}

q: If you can, please state the reported pKi value of CCn1cc([C@@](O)([C@@H](C)c2ccc(-c3ccc(C(=O)OC)c(OC)c3)cc2Cl)C(F)(F)F)ccc1=O (stereo in doubt) .
a: 8.13

q: If you can, please state the reported pKi value of C[C@@H](c1ccc(-c2ccc(C(=O)O)c(F)c2)cc1Cl)[C@](O)(c1ccc(=O)n(C)c1)C(F)(F)F .
a: 7.34

q: If you can, please state the reported pKi value of C[C@@H](c1ccc(OCc2ccc(C(=O)O)cc2)cc1Cl)[C@](O)(c1cccc2cnccc12)C(F)(F)F (stereo in doubt) .
a: 8.89

q: If you can, please state the reported pKi value of Cc1cc([C@@](O)([C@@H](C)c2ccc(Oc3ccc(C(=O)O)c(C(F)(F)F)c3)cc2Cl)C(F)(F)F)cn(C)c1=O (stereo in doubt) .
a: 9.30

q: If you can, please state the reported pKi value of COC(=O)c1ccc(-c2ccc([C@@H](C)[C@@](O)(c3ccnc(Cl)c3)C(F)(F)F)c(Cl)c2)cc1F (relative stereo) .
a: 7.83

q: If you can, please state the reported pKi value of COC(=O)c1ccc(COc2ccc([C@@H](C)[C@@](O)(c3cnc(C)cn3)C(F)(F)F)c(Cl)c2)c(OC)c1 (racemic) .
a: 7.14

q: If you can, please state the reported pKi value of COC(=O)c1ccnc(COc2ccc(C(C)C(O)(c3ccnc(C)c3)C(F)(F)F)c(Cl)c2)c1 (stereo not drawn) .
a: 8.04
